# target entity: Metabotropic glutamate receptor 8 (Rattus norvegicus) (UniProt P70579)
# Sequence (P70579 whole entry, looked up): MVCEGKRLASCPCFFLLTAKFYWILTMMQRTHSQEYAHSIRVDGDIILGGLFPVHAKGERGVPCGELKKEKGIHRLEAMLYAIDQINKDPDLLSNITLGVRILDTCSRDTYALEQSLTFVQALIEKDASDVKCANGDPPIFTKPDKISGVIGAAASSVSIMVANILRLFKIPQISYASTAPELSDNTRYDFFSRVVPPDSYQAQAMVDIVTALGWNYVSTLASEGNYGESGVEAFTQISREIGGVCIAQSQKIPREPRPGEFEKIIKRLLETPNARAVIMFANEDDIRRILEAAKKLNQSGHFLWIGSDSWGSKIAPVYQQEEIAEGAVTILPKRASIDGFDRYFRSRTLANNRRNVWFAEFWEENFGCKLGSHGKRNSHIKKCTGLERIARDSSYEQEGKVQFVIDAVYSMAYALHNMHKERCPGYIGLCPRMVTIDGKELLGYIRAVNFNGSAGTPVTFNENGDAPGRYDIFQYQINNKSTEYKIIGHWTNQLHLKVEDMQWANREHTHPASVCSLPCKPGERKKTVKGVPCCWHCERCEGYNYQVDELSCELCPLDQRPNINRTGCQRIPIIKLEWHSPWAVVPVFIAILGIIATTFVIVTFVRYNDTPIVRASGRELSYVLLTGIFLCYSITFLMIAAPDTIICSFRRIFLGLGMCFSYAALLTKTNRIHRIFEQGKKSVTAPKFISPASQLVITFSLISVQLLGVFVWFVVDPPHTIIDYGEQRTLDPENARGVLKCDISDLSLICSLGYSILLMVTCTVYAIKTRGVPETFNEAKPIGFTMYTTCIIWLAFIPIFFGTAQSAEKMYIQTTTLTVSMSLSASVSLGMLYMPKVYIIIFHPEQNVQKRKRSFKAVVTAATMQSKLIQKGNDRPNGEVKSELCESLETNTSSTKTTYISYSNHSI
# assay details: mGluR8 Gi/Go-coupled signaling modulation – cell-based, rat, thallium flux, HTS, primary screen (AID 488969)
# assay setup: HEK293 rat mGluR8, GIRK (G protein-gated inwardly rectifying potassium channel) thallium flux, FluoZin2; at 10 µM; stronger effect = higher value; submaximal glutamate (EC20) added with thallium
In all, about 110,000 compounds were measured (“z-score”: median about -0.1, highest 2% from about 2 on). This is one part of a sample in which the highest values are shown more often than they occur.
readout kind: z-score
Please reply with the value in numeric form only.

compound	meas value
CNc1ccc(Br)cc(C(=O)/C=C/c2ccc3c(c2)OCO3)c1=O	0.111

// z-score lookup, compound = `O=C(CSc1ccc(-c2ccco2)nn1)c1ccccc1` , result: 7.29

// z-score lookup, compound = `O=C(/C=C/c1ccc2c(c1)OCCCO2)c1ccccc1O` , result: 0.562

// z-score lookup, compound = `Cc1ccc(-c2cnc(SCC(=O)N3CCCc4ccccc43)n2C)cc1` , result: -0.31

// z-score lookup, compound = O=C(O)C1CC=CCC1C(=O)Nc1cc(Cl)ccc1Cl (stereo unspecified) , result: -0.205

// z-score lookup, compound = `Cc1cccc(/C=C/C(=O)c2cc(Br)ccc(=O)c2O)c1` , result: 2.75

// z-score lookup, compound = `c1ccc2c(c1)CC1(CCCC1)n1nnnc1-2` , result: -0.648

// z-score lookup, compound = `O=C(Nc1cccc2ncccc12)c1ccc(-c2ccc(Br)cc2)o1` , result: -0.163

// z-score lookup, compound = `COC(=O)c1cc(=O)nc2sccn12` , result: -0.417

// z-score lookup, compound = `O=C(/C=C/c1ccc2c(c1)OCCCO2)c1ccc2ccccc2c1O` , result: 0.573

// z-score lookup, compound = COc1cccc(C2CC(c3ccc(F)cc3)Nc3nc(N)nn32)c1 (stereo unspecified) , result: 0.0383

// z-score lookup, compound = `COc1ccc2nc(SCc3cnc(C)nc3N)[nH]c2c1` , result: 0.0366

// z-score lookup, compound = `OCc1nc2ccccc2n1C/C=C/c1ccccc1` , result: 0.00864

// z-score lookup, compound = CCNC(=O)NC(=O)C(C)OC(=O)C1CCN(S(=O)(=O)c2ccc(C)c(C)c2)CC1 (stereo unspecified) , result: -0.143

// z-score lookup, compound = `CCCCNC(=S)N(C)/N=C/c1ccc(OCC(=O)Nc2c(C)cc(C)cc2C)c(OC)c1` , result: 0.00502

// z-score lookup, compound = `CCc1cccc(NC(=O)COc2ccccc2)c1` , result: 0.78

// z-score lookup, compound = COc1cc2[nH]c(=S)nc(NCC3CCCO3)c2cc1OC (stereo unspecified) , result: 0.919

// z-score lookup, compound = O=C(O)C1CCCCC1C(=O)Nc1ccccc1Cl (stereo unspecified) , result: -0.189

// z-score lookup, compound = `Cc1ccc(-n2c(SCC(N)=O)nc3c(c2=O)C2(CCCC2)Cc2ccccc2-3)cc1` , result: -0.348

// z-score lookup, compound = `COc1ccc(-c2nc(C#N)c(NCCCN(C)C)o2)cc1OC` , result: 11.2

// z-score lookup, compound = `CCN(CC)CCCNc1oc(-c2ccc(OC)c(OC)c2)nc1C#N` , result: -0.222

Attribution: PubChem BioAssay AID488969
